TARGET DESC: human nSMase2 (Homo sapiens, UniProt Q9NY59)
Construct: expressed in transfected cells; host or cells: HEK293T
Sequence (Q9NY59 whole entry): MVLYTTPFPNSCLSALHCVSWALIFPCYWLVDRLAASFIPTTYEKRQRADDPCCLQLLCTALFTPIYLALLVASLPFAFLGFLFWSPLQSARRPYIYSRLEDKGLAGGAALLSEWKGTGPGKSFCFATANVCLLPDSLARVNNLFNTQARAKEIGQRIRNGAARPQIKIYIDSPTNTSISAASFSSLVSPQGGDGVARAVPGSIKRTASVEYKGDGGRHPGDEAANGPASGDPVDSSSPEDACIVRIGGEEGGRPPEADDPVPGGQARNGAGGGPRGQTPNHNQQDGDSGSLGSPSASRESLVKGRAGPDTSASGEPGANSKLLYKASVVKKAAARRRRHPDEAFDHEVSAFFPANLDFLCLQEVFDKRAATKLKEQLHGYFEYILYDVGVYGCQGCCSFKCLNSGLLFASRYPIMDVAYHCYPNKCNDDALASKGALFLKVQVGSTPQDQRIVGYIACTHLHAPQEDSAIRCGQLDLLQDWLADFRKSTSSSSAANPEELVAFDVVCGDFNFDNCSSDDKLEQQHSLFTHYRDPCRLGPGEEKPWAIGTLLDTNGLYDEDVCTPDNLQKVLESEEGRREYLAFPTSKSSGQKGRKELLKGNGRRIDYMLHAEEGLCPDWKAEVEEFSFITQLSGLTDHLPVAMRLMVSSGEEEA
METHOD DESCRIPTION: biochemical
Type: biochemical
EXPERIMENTAL PARAMETERS: IC50 (nSMase2) Groups: A-D
pIC50: −log10 of the molar value.
QUANTITY NAME: pIC50

Examples with their reported pIC50 follow.
COMPOUND: CN1c2ccc(OCc3ccccc3)nc2[C@]2(C)CCO[C@H]12
pIC50: < 4.30
--
COMPOUND: CN1c2ccc(O)nc2[C@]2(C)CCO[C@H]12
pIC50: 5.00 to 6.00
--
COMPOUND: CCN1c2ccc(O)nc2[C@]2(C)CCO[C@H]12
pIC50: 5.00 to 6.00
--
COMPOUND: CC[C@@H]1C[C@@]2(C)c3cc(OC(=O)Nc4ccccc4)ccc3N(C)[C@H]2O1 [drawing 43]
pIC50: 5.00 to 6.00
--
COMPOUND: CN1c2ccc(OC(=O)Nc3ccccn3)cc2[C@]2(C)CCO[C@H]12 [drawing 45]
pIC50: > 6.00

Next compound, please.
Entry under review: `CCN1c2ccc(OCc3ccccc3)nc2[C@]2(C)CCO[C@H]12` . Reported pIC50?
< 4.30
